Assay remarks: NCI Yeast Anticancer Drug Screen. Data for the bub3 strain (AID 167)
Run parameters: S. cerevisiae bub3 mutant strain, at 50.0 µM (retest, dose inferred, filed as 5.0), stronger effect = higher value
Compounds without any hit were thinned out: in the full panel of roughly 79,000, 15% have a hit.
Entries and their growth inhibition
Observation type: growth inhibition (%)

1. CCCN1CN(c2ccccc2)C2(CCN(CCCC(=O)c3ccc(F)cc3)CC2)C1=O; 35
2. CC(Cl)CN(C)C (stereo not drawn); -10
3. CC(=O)Nc1ccc(/C=N/N=C(/N)N[N+](=O)[O-])cc1; -6
4. CCOP(=S)(S)OCC.[Pd]; 86
5. CC[CH2][Sn]([F])([F])[CH2]CC; 96
6. CC(C)C1=CC23CCC4C(C)(C(=O)O)CCCC4(C)C2CC1OO3 (stereo not drawn); 80
7. O/N=C/c1ccc2c(c1)OCO2; 99
8. ClC(C[n+]1ccccc1)c1ccccc1 (stereo not drawn); 6
9. O=c1oc2ccccc2c(O)c1C1c2c(c3ccccc3oc2=O)Oc2c1c(=O)oc1ccccc21; 97
10. O=[N+]([O-])c1ccccc1; 12
11. CC1=C(CO)C(=O)OC(C(C)C2CCC3C4CC5OC56C(O)C(N5CC5)=CC(=O)C6(C)C4CCC23C)C1 (stereo not drawn); 77
12. Cc1ccc(S)cc1.[Pb]; 50
13. CCCCCCCCCCCCCC(=O)O; 29
14. [Br][Sn]([CH]1CCCCC1)([CH]1CCCCC1)[CH]1CCCCC1; 99
15. O=[N+]([O-])c1cc(S(=O)(=O)F)ccc1S; 90
16. CCC[CH2][Sn]([CH2]CCC)([CH2]CCC)[O]C(=O)C[N+](C)(C)c1cc[c]([Hg][c]2ccc(N(C)C)cc2)cc1; 99
17. CC/C(=C/c1ccc2c(c1)OCO2)[N+](=O)[O-]; 99
18. CCC1(O)C(=O)OCc2c1cc1n(c2=O)Cc2cc3ccc(C#N)cc3nc2-1 (stereo not drawn); -63
19. Br[C](Br)(Br)[Hg][c]1ccccc1; 99
20. O=P(O/C(=C\c1ccccc1)c1ccccc1)(c1ccccc1)c1ccccc1; 97
21. O=CNc1ccccc1.[Hg]; 98
22. COC12C(COC(C)=O)C3=C(C(=O)C(C)=C(N4CCCCC4)C3=O)N1CC1NC12 (stereo not drawn); 96
23. C[C@H]1C/C=C/[C@H]2[C@@H]3O[C@]3(C)[C@@H](C)[C@H]3[C@H](Cc4ccccc4)NC(=O)[C@]32OC(=O)O/C=C/[C@@](C)(O)C1=O; 48

====

Assay remarks: NCI Yeast Anticancer Drug Screen. Data for the rad52 strain (AID 147);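 further: 0% = growth of vehicle-treated control cultures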
Run parameters: S. cerevisiae rad52 mutant growth inhibition; at 1.2 µM; stronger effect = higher value
This is part of a sample that, as a whole, favours compounds with a hit. Of some 79,000 tested, about 15% had one in any assay.
Entries and their growth inhibition
Observation type: growth inhibition (%)

1) O=C(O)C1C2C=CC(C2)C1c1ccccc1 (stereo not drawn); -1
2) Cc1c(N)nc([C@H](CC(N)=O)NC[C@H](N)C(N)=O)nc1C(=O)N[C@H](C(=O)N[C@H](C)[C@@H](O)[C@H](C)C(=O)N[C@H](C(=O)NCCc1nc(-c2nc(C(=O)NCCC[S+](C)C)cs2)cs1)[C@@H](C)O)C(OC1OC(CO)C(O)C(O)C1OC1OC(CO)C(O)C(OC(N)=O)C1O)c1cnc[nH]1 (stereo partly drawn); 7
3) CNC(=O)ON(C(C)=O)C(=O)NC; -27
4) Oc1cccc2cccnc12; 20
5) c1ccc2cc3n[se]nc3cc2c1; 2
6) COC1CC(CC2CCC(C)C(C(C)C(=O)O)O2)OC2(OC(C)(C3CCC(C)(C4OC(C5OC(O)(CO)C(C)CC5C)CC4C)O3)CC2C)C1C (stereo not drawn); 17
7) N#Cc1cc(N(CCCl)CCCl)c([N+](=O)[O-])cc1[N+](=O)[O-]; 7
8) C/C(CCl)=N/NC1=NC(c2ccccc2Cl)P(=O)(NCCCNP2(=O)SC(N/N=C(/C)CCl)=NC2c2ccccc2Cl)S1 (stereo not drawn); -2
